- Test system: K-562 leukemia
- procedure-summary: NCI tumour cell line growth inhibition, 48 h; in the data active = GI50 below about 0.43 µM; inactive = the rest
Pick one and only one: T for active, F for inactive

molecule	measured-target	class-name
COc1cc(/C=N/NC(=O)c2ccc(C(F)(F)F)nc2Nc2ccc(Cl)cc2C)ccc1O	K-562 leukemia	F
Cc1ccc(NC2=C(Cl)C(=O)N(Cc3ccccc3)C2=O)cc1O	K-562 leukemia	F
Cn1cc(C2=C(c3cn(C)c4ncccc34)C(=O)NC2=O)c2ccccc21	K-562 leukemia	F
CO[C@H](C(=O)[C@@H](O)[C@@H](C)O)[C@@H]1Cc2cc3cc(O[C@H]4C[C@@H](O[C@H]5C[C@@H](O)[C@H](O)C(C)O5)[C@H](O)C(C)O4)c(C)c(O)c3c(O)c2C(=O)[C@H]1O[C@H]1C[C@@H](O[C@H]2C[C@@H](O[C@H]3C[C@](C)(O)C(=O)C(C)O3)[C@@H](O)C(C)O2)[C@H](O)C(C)O1 (some centres not stated)	K-562 leukemia	T
COc1cc(-c2nn(-c3ccc(NC(=O)c4ccc(Cl)c(C(F)(F)F)c4)cc3)cc2-c2ccncc2)ccc1Cl	K-562 leukemia	F
C=C(CN1CCN(c2ccc(Cl)cc2F)CC1)c1ccc(C(=O)Nc2ccccc2N)cc1	K-562 leukemia	F

Now consider a different molecule.
Query: Would you mind telling me which call this test gave O=C1/C(=C/c2cccc([N+](=O)[O-])c2)COc2ccc(O)cc21 ?
Reply: F
